Reference source for all entries: patent US20260116980A1

Would you mind telling me the reported koff of each entry?
Molecular target: T1, ECD of human 4Ig-B7H3 (Sinobiological, Cat: 11188-H08H) (human, UniProt Q5ZPR3 29-466)
T1 construct: Bought protein; also called recombinant B7H3
T1 sequence: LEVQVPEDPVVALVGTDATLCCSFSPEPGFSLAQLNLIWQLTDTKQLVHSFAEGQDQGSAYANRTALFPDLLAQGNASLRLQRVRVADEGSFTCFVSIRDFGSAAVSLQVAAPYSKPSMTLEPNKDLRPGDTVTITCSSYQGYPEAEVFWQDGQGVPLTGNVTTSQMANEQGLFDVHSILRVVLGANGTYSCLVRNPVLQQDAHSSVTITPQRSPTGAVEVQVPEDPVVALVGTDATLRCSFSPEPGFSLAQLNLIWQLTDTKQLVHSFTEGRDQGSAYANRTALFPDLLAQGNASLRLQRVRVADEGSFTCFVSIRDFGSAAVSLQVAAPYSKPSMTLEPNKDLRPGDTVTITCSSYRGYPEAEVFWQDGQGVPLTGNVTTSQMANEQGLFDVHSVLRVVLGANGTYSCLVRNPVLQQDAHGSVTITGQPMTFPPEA
Test: SPR, antibody captured on anti-human Fc surface, Test 1
The figure you give is taken to be in s⁻¹; do not add the unit.

Input line: Which koff is reported for this binder? BGA-3726 in human full-length format (human IgG1 variant IgG1mf / kappa) (antibody, V domains shown) VH: QVQLQESGPGLVKPSGTLSLTCAVSGGSISTSNWWNWVRQSPGKGLEWIGEIYPTGNTNYSPSLKSRVTISIDKSKNQFSLKLNSVTAADTAVYYCARGWNWFDPWGQGTLVTVSS VL: EIVLTQSPGTLSLSPGERATLSCRTSQSINGILLAWYQQKPGQAPRLLIYGASSRATGIPDRFSGSGSGTDFTLSISRLEPEDFAVYYCQQYGSSPRTFGQGTKVEIKR
Output line: 0.000136

Input line: Same question, BGA-4498 (BGA-3726 variant comprising W96Y in HCDR3) (antibody, human IgG1, kappa, V domains shown) VH: QVQLQESGPGLVKPSGTLSLTCAVSGGSISTSNWWNWVRQSPGKGLEWIGEIYPTGNTNYSPSLKSRVTISIDKSKNQFSLKLNSVTAADTAVYYCARGYNWFDPWGQGTLVTVSS VL: EIVLTQSPGTLSLSPGERATLSCRTSQSINGILLAWYQQKPGQAPRLLIYGASSRATGIPDRFSGSGSGTDFTLSISRLEPEDFAVYYCQQYGSSPRTFGQGTKVEIKR this time
Output line: 0.000199

Input line: Same question, BGA-4826 (BGA-3726 variant comprising W34Y in HCDR1) (antibody, human IgG1, kappa, V domains shown) VH: QVQLQESGPGLVKPSGTLSLTCAVSGGSISTSNYWNWVRQSPGKGLEWIGEIYPTGNTNYSPSLKSRVTISIDKSKNQFSLKLNSVTAADTAVYYCARGWNWFDPWGQGTLVTVSS VL: EIVLTQSPGTLSLSPGERATLSCRTSQSINGILLAWYQQKPGQAPRLLIYGASSRATGIPDRFSGSGSGTDFTLSISRLEPEDFAVYYCQQYGSSPRTFGQGTKVEIKR this time
Output line: 0.000171

Input line: Same question, BGA-4380 (BGA-3726 variant comprising N29Q in LCDR1) (antibody, human IgG1, kappa, V domains shown) VH: QVQLQESGPGLVKPSGTLSLTCAVSGGSISTSNWWNWVRQSPGKGLEWIGEIYPTGNTNYSPSLKSRVTISIDKSKNQFSLKLNSVTAADTAVYYCARGWNWFDPWGQGTLVTVSS VL: EIVLTQSPGTLSLSPGERATLSCRTSQSIQGILLAWYQQKPGQAPRLLIYGASSRATGIPDRFSGSGSGTDFTLSISRLEPEDFAVYYCQQYGSSPRTFGQGTKVEIKR this time
Output line: 0.000237
